What follows is a record of pIC50 for cathepsin L (Rattus norvegicus, UniProt P07154).
Answers are plain numbers, as −log10 of the molar value.

// for each compound in input: emit pIC50
1. CC(C)C[C@H](NC(=O)Cc1ccc2ccccc2c1)C(=O)N[C@@H](Cc1ccccc1)C(=O)CSCc1ccco1
2. CC(C)C[C@H](NC(=O)OCc1ccccc1)C(=O)N[C@@H](Cc1ccccc1)C(=O)CN(C)C
3. CCCC[C@H](NC(=O)[C@H](CC(C)C)NC(=O)Cc1csc2ccccc12)C(=O)CSCc1ccco1

5.18
5.55
6.29

====

Below are IC50 values measured for UniProtKB P07688.
Answer with the number, then the unit.

// solved cases for IC50 follow
| smilesRepresentation | IC50 |
| --- | --- |
| CC(C)C[C@H](NC(=O)COc1ccccc1)C(=O)N[C@@H](Cc1ccccc1)C(=O)CSCc1ccco1 | 64000 nM |
| CSCC(=O)[C@H](Cc1ccccc1)NC(=O)[C@H](CC(C)C)NC(=O)Cc1cccc2ccccc12 | 3900 nM |
| CCCC[C@H](NC(=O)[C@H](CC(C)C)NC(=O)OCc1ccccc1F)C(=O)CSCc1ccco1 | 3700 nM |
| CCCC[C@H](NC(=O)[C@H](CC(C)C)NC(=O)COc1ccccc1Cl)C(=O)CSCc1ccco1 | 290 nM |
| CCCC[C@H](NC(=O)[C@H](CC(C)C)NC(=O)c1ccccc1)C(=O)CSCc1ccco1 | 880 nM |

Batch lookup, IC50 per entry.
1. CCCC[C@H](NC(=O)[C@H](CC(C)C)NC(=O)Cc1cccc2ccccc12)C(=O)CSCc1ccco1
2. CCCC[C@H](NC(=O)[C@H](CC(C)C)NC(=O)COc1cccc(C)c1)C(=O)CSCc1ccco1

["1200 nM", "380 nM"]

====

- system: papain (Carica papaya)
- Sequence (P00784 134-345): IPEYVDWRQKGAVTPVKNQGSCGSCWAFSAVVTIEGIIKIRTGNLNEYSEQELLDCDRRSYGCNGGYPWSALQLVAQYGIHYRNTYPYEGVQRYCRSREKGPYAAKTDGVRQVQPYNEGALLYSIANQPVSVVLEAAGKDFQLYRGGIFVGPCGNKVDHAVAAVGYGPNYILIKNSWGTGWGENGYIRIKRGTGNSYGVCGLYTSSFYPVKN
- assayText: Thiol protease inhibitory activity, papain (P-3125, Sigma)
- Assay type: biochemical
- reportedConditions: Table 3; read-out: IC50 papain
measuredEndpoint: pIC50
Numbers only, as −log10 of the molar value.

Batch: pIC50 for all items listed.
1. CC(C)C[C@H](NC(=O)COc1ccccc1)C(=O)NC(Cc1cccc2ccccc12)C(=O)CSCc1ccco1 (stereo partly drawn) [209 (No. 555)]
2. CCCC[C@H](NC(=O)[C@H](CC(C)C)NC(=O)COc1ccc(Cl)cc1)C(=O)CSCc1ccco1 [40 (No. 90)]
3. CC(C)C[C@H](NC(=O)OCc1ccccn1)C(=O)N[C@@H](Cc1ccccc1)C(=O)CSCc1ccco1 [150 (No. 313)]

[5.05, 5.68, 4.04]
